# key: entry, value: Discrimination ratio
Test: Discrimination ratio of [3H]5-HT reuptake/SERT binding
Assay type: functional
outcome-measure: Discrimination ratio

[
  {
    "molecule": "c1ccc(CCCNC2CCN(CCOC(c3ccccc3)c3ccccc3)CC2)cc1",
    "numeric-readout": 7.1
  },
  {
    "molecule": "Fc1ccc(CCNC2CCN(CCOC(c3ccccc3)c3ccccc3)CC2)cc1",
    "numeric-readout": 2.1
  },
  {
    "molecule": "c1ccc(CCCN2CCCC(CNCCOC(c3ccccc3)c3ccccc3)C2)cc1 (stereo not given)",
    "numeric-readout": 3.8
  },
  {
    "molecule": "Fc1ccc(CCNCC2CCCN(CCOC(c3ccccc3)c3ccccc3)C2)cc1 (stereo not given)",
    "numeric-readout": 2.1
  },
  {
    "molecule": "CN(CCc1ccc(F)cc1)CC1CCCN(CCOC(c2ccccc2)c2ccccc2)C1 (stereo not given)",
    "numeric-readout": 4
  }
]

====

Test: Discrimination ratio of [3H]-DA reuptake/DAT binding
Type: functional
Binary call on Discrimination ratio: t from 3 upward, f beneath that.

[
  {
    "compound": "c1ccc(CN2CCC(NCCOC(c3ccccc3)c3ccccc3)CC2)cc1",
    "class-name": "t"
  },
  {
    "compound": "c1ccc(CCCNCC2CCCN(CCOC(c3ccccc3)c3ccccc3)C2)cc1 (stereo not given)",
    "class-name": "f"
  },
  {
    "compound": "CN(CCCc1ccccc1)C1CCN(CCOC(c2ccccc2)c2ccccc2)CC1",
    "class-name": "f"
  },
  {
    "compound": "Fc1ccc(CCNC2CCN(CCOC(c3ccccc3)c3ccccc3)CC2)cc1",
    "class-name": "f"
  },
  {
    "compound": "c1ccc(CCCNC2CCN(CCOC(c3ccccc3)c3ccccc3)CC2)cc1",
    "class-name": "f"
  },
  {
    "compound": "c1ccc(CCCN2CCCC(CNCCOC(c3ccccc3)c3ccccc3)C2)cc1 (stereo not given)",
    "class-name": "t"
  },
  {
    "compound": "CN(CCc1ccc(F)cc1)CC1CCCN(CCOC(c2ccccc2)c2ccccc2)C1 (stereo not given)",
    "class-name": "t"
  },
  {
    "compound": "CN(CCOC(c1ccccc1)c1ccccc1)C1CCN(CCCc2ccccc2)CC1",
    "class-name": "t"
  },
  {
    "compound": "Fc1ccc(CCN2CCCC(CNCCOC(c3ccccc3)c3ccccc3)C2)cc1 (stereo not given)",
    "class-name": "t"
  },
  {
    "compound": "Fc1ccc(CCNCC2CCCN(CCOC(c3ccccc3)c3ccccc3)C2)cc1 (stereo not given)",
    "class-name": "t"
  }
]

====

Molecular target: Sodium-dependent serotonin transporter (Homo sapiens)
Sequence (P31645 whole entry): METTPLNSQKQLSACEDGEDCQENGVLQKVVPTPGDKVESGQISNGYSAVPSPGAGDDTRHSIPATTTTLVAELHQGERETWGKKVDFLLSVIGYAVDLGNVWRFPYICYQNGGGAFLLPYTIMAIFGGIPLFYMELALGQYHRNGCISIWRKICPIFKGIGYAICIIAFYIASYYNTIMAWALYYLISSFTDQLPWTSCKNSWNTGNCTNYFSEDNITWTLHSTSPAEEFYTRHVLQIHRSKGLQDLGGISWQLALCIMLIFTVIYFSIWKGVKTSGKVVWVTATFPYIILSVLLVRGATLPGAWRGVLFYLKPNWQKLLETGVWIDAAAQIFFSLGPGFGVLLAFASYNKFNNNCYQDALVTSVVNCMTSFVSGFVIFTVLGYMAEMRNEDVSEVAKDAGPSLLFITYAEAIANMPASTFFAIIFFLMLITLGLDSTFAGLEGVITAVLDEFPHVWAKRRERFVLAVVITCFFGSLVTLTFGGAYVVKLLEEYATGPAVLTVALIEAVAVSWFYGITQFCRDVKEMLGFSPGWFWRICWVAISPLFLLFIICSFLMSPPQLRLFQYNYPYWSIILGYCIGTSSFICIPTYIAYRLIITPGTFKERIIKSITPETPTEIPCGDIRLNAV
pKi: −log10 of the molar value.

[
  {
    "compound": "Fc1ccc(CCNCC2CCCN(CCOC(c3ccccc3)c3ccccc3)C2)cc1 (stereo not given)",
    "pKi": 6.05
  },
  {
    "compound": "CN(CCCc1ccccc1)C1CCN(CCOC(c2ccccc2)c2ccccc2)CC1",
    "pKi": 7.06
  },
  {
    "compound": "c1ccc(CCCNCC2CCCN(CCOC(c3ccccc3)c3ccccc3)C2)cc1 (stereo not given)",
    "pKi": 6.49
  },
  {
    "compound": "CN(CCc1ccc(F)cc1)CC1CCCN(CCOC(c2ccccc2)c2ccccc2)C1 (stereo not given)",
    "pKi": 6.28
  },
  {
    "compound": "c1ccc(CCCNC2CCN(CCOC(c3ccccc3)c3ccccc3)CC2)cc1",
    "pKi": 7.26
  },
  {
    "compound": "c1ccc(CN2CCC(NCCOC(c3ccccc3)c3ccccc3)CC2)cc1",
    "pKi": 5.67
  },
  {
    "compound": "Fc1ccc(CCNC2CCN(CCOC(c3ccccc3)c3ccccc3)CC2)cc1",
    "pKi": 6.66
  },
  {
    "compound": "CN(CCOC(c1ccccc1)c1ccccc1)C1CCN(CCCc2ccccc2)CC1",
    "pKi": 5.85
  },
  {
    "compound": "c1ccc(CCCN2CCCC(CNCCOC(c3ccccc3)c3ccccc3)C2)cc1 (stereo not given)",
    "pKi": 6.68
  },
  {
    "compound": "Fc1ccc(CCN2CCCC(CNCCOC(c3ccccc3)c3ccccc3)C2)cc1 (stereo not given)",
    "pKi": 6.46
  }
]
